Origin of measurements: ChEMBL document CHEMBL4808186

Experiment: Cmax in Sprague-Dawley rat at 5 mg/kg, iv by UHPLC-MS analysis
Assay type: ADME, organism-based
Set-up: route intravenous, dose 5 mg/kg
Details: in vivo
readoutType: Cmax (ng/mL)
Provide the reading as a plain figure in ng/mL.

INPUT: What does the data say about its Cmax? Entry: CC(=O)O[C@H]1C(=O)[C@@]2(C)[C@H]([C@H](OC(=O)c3ccccc3)[C@]3(O)C[C@H](OC(=O)[C@H](O)[C@@H](NC(=O)c4ccccc4)c4ccccc4)C(C)=C1C3(C)C)[C@]1(OC(C)=O)CO[C@@H]1C[C@@H]2O
OUTPUT: 926

###

Assay: Cmax in Sprague-Dawley rat at 20 mg/kg, po in presence of N-(2-(6,7-Dimethoxy-3,4-dihydroisoquinolin-2(1H)-yl)ethyl)-3-((4-(furan-2-yl)pyrimidin-2-yl)amino)-4-methylbenzamide by UHPLC-MS analysis
Assay type: ADME, organism-based
Set-up: route oral, dose 20 mg/kg
Conditions: in vivo
readoutType: Cmax (ng/mL)
Provide the reading as a plain figure in ng/mL.

INPUT: What does the data say about its Cmax? Entry: CC(=O)O[C@H]1C(=O)[C@@]2(C)[C@H]([C@H](OC(=O)c3ccccc3)[C@]3(O)C[C@H](OC(=O)[C@H](O)[C@@H](NC(=O)c4ccccc4)c4ccccc4)C(C)=C1C3(C)C)[C@]1(OC(C)=O)CO[C@@H]1C[C@@H]2O [PACLITAXEL]
OUTPUT: 853
